Measured Zeta (mV) accompanies every entry in the list below.
METHOD NOTES: LNP zeta potential (Zetasizer)
Assay type: physicochemical
ASSAY CONTEXT: LNP with mRNA (SEQ ID NO: 2)

COMPOUND	Zeta (mV)
CCCCCCCCC(CCCCCC)C(=O)OCCCCCCCCN(CCCCCCCCOC(=O)C(CCCCCC)CCCCCCCC)CCCOC(=O)NCCN(C)C (stereo not drawn)	3.895
CCCCCCCCC(CCCCCC)C(=O)OCCCCCCCCN(CCCCCCCCOC(=O)C(CCCCCC)CCCCCCCC)CCOC(=O)NCCN(C)C (stereo not drawn)	4.201
CCCCCCCCCCC(CCCCCCCC)COC(=O)CCCCCN(CCCCCC(=O)OCC(CCCCCCCC)CCCCCCCCCC)CCOC(=O)NCCN1CCCCC1 (stereo not drawn)	−0.8755

---

System: Alanine Aminotransferase (ALT)
METHOD NOTES: Liver enzyme elevation in serum, ALT
Type: in vivo
ASSAY CONTEXT: cirRNA (SEQ ID NO: 1) LNPs; BALB/C mice; intravenous 0.5 MPK; 2 hours
RECORDED METRIC: ALT in Sera (IU/L) 2 hours After 0.5 MPK Injection

MOLECULE	RECORDED RESULT
CCCCCCCCC(CCCCCC)C(=O)OCCCCCCCCN(CCCCCCCCOC(=O)C(CCCCCC)CCCCCCCC)CCCOC(=O)NCCN1CCCCC1 (stereo not shown)	89.33
CCCCC/C=C\CCOC(=O)CCCCCN(CCCCCC(=O)OCC(CCCCCCCC)CCCCCCCCCC)CCOC(=O)NCCN1CCCCC1 (stereo not shown)	136.50
CCCCC/C=C\C/C=C\CCCCCCCCN(CCCCCCCC(=O)OC(CCCCCCCC)CCCCCCCC)CCOC(=O)NCc1ncc[nH]1	65.03
CCCCC/C=C\C/C=C\CCCCCCCCN(CCCCCCCC(=O)OC(CCCCCCCC)CCCCCCCC)CCOC(=O)NCCN1CCCCC1	74.17
CCCCCCCCC(CCCCCCCC)OC(=O)CCCCCCCN(CCCCCCCCOC(=O)C(CCCCCC)CCCCCCCC)CCCOC(=O)NCCCN(C)C (stereo not shown)	82.33
CCCCCCCCC(CCCCCCCC)OC(=O)CCCCCCCN(CCCCCCCCOC(=O)C(CCCCCC)CCCCCCCC)CCCOC(=O)NCCN1CCCC1 (stereo not shown)	105.67
CCCCCCCCC(CCCCCCCC)OC(=O)CCCCCCCN(CCCCCCCCOC(=O)C(CCCCCC)CCCCCCCC)CCCOC(=O)NCCN1CCCCC1 (stereo not shown)	74.33
CCCCCCCCCCC(CCCCCCCC)COC(=O)CCCCCN(CCCCCC(=O)OCC(CCCCCCCC)CCCCCCCCCC)CCOC(=O)NCCN(C)C (stereo not shown)	62.53
CCCCC/C=C\C/C=C\CCCCCCCCN(CCCCCCCC/C=C\CCCCCCCC)CCOC(=O)NCc1ncc[nH]1	40.77
CCCCC/C=C\C/C=C\CCCCCCCCN(CCCCCC(=O)OCCCCCCCCCCC)CCOC(=O)NCc1ncc[nH]1	40.57
CCCCCCCCC(CCCCCCCC)OC(=O)CCCCCCCN(CCCCCCCCOC(=O)C(CCCCCC)CCCCCCCC)CCOC(=O)NCCN(C)C (stereo not shown)	51.97
CCCCC/C=C\C/C=C\CCCCCCCCN(CCCCCCCC(=O)OC(CCCCCCCC)CCCCCCCC)CCCOC(=O)NCCCn1ccnc1	247.67
CCCCCCCCC(CCCCCC)C(=O)OCCCCCCCCN(CCCCCCCCOC(=O)C(CCCCCC)CCCCCCCC)CCCOC(=O)NCCCN(CC)CC (stereo not shown)	117.33

---

System: MCP-I
METHOD NOTES: MCP-I cytokine elevation in serum
Type: in vivo
ASSAY CONTEXT: cirRNA (SEQ ID NO: 1) LNPs, mice, 2 hours
Please note: MCP-I in Sera 2 hours After 0.5 MPK Injection exactly at 4000 pg/mL is 0 (no). Only values below 4000 pg/mL get 1 (yes).

COMPOUND	ANSWER LABEL
CCCCCCCCC(CCCCCC)C(=O)OCCCCCCCCN(CCCCCCCCOC(=O)C(CCCCCC)CCCCCCCC)CCCOC(=O)NCc1ncc[nH]1 (stereo not drawn)	1 (yes)
CCCCCCCCC(CCCCCCCC)OC(=O)CCCCCCCN(CCCCCCCCOC(=O)C(CCCCCC)CCCCCCCC)CCCOC(=O)NCCN1CCCC1 (stereo not drawn)	0 (no)
CCCCCCCCCC(=O)OCCCCCCCN(CCCCCCCCOC(=O)C(CCCCCC)CCCCCCCC)CCOC(=O)NCCN1CCCCC1 (stereo not drawn)	1 (yes)
CCCCCCCCCCC(CCCCCCCC)COC(=O)CCCCCN(CCCCCC(=O)OCC(CCCCCCCC)CCCCCCCCCC)CCCOC(=O)NCCN1CCCCC1 (stereo not drawn)	0 (no)
CCCCC/C=C\C/C=C\CCCCCCCCN(CCCCCCCC(=O)OC(CCCCCCCC)CCCCCCCC)CCCOC(=O)NCCN(C)C	0 (no)
CCCCCCCCC(CCCCCCCC)OC(=O)CCCCCCCN(CCCCCCCCOC(=O)C(CCCCCC)CCCCCCCC)CCOC(=O)NCCN(C)C (stereo not drawn)	0 (no)

---

System: Hep G2 cells
METHOD NOTES: In vitro toxicity (CellTiter-Glo cell viability), Hep G2;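 note: percent of untreated cells luminescence signal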
Assay type: cell-based
ASSAY CONTEXT: cirRNA (SEQ ID NO: 1) LNPs; Hep G2 cells
RECORDED METRIC: In vitro Viability HepG2 (%)

COMPOUND	RECORDED RESULT
CCCCCCCCCC(=O)OCCCCCCCN(CCCCCCCCOC(=O)C(CCCCCC)CCCCCCCC)CCOC(=O)NCCN(C)C (centres unmarked)	88
CCCCCCCCC(CCCCCCCC)OC(=O)CCCCCCCN(CCCCCCCCOC(=O)C(CCCCCC)CCCCCCCC)CCCOC(=O)NCCN1CCC1 (centres unmarked)	37
CCCCCCCCC(CCCCCCCC)OC(=O)CCCCCCCN(CCCCCCCCOC(=O)C(CCCCCC)CCCCCCCC)CCCOC(=O)NCCCN(CC)CC (centres unmarked)	73
CCCCC/C=C\C/C=C\CCCCCCCCN(CCCCCCCC(=O)OC(CCCCCCCC)CCCCCCCC)CCCOC(=O)NCCCN(C)C	102
CCCCCCCCCC(=O)OCCCCCCCN(CCCCCCCCOC(=O)C(CCCCCC)CCCCCCCC)CCOC(=O)NCCN1CCCCC1 (centres unmarked)	103
CCCCCCCCCCCOC(=O)CCCCCN(CCCCCCCC(=O)OC(CCCCCCCC)CCCCCCCC)CCOC(=O)NCCN1CCCCC1	94
CCCCC/C=C\C/C=C\CCCCCCCCN(CCCCCC(=O)OCC/C=C\CCCCC)CCOC(=O)NCc1ccncc1	78
CCCCCCCCC(CCCCCC)C(=O)OCCCCCCCCN(CCCCCCCCCCC(=O)OCCCCCC)CCOC(=O)NCCN(C)C (centres unmarked)	97
CCCCCCCCC(CCCCCCCC)OC(=O)CCCCCCCN(CCCCCCCCOC(=O)C(CCCCCC)CCCCCCCC)CCCOC(=O)NCCN1CCCCCC1 (centres unmarked)	119
CCCCCCCC/C=C\CCCCCCCCN(CCCCCCCCOC(=O)C(CCCCCC)CCCCCCCC)CCOC(=O)NCCCN(CC)CC (centres unmarked)	74
CCCCC/C=C\C/C=C\CCCCCCCCN(CCCCCCCC/C=C\C/C=C\CCCCC)CCOC(=O)NCCN(C)C	89
CCCCCCCCCC(=O)OCCCCCCCN(CCCCCCCCOC(=O)C(CCCCCC)CCCCCCCC)CCOC(=O)NCCCN(CC)CC (centres unmarked)	87
CCCCCCCCCCCOC(=O)CCCCCN(CCCCCCCC(=O)OC(CCCCCCCC)CCCCCCCC)CCOC(=O)NCCN(C)C	64
CCCCC/C=C\C/C=C\CCCCCCCCN(CCCCCCCC/C=C\C/C=C\CCCCC)CCOC(=O)NCCN1CCCCC1	78

---

METHOD NOTES: LNP size and polydispersity index (PDI) by dynamic light scattering
Format: physicochemical
ASSAY CONTEXT: LNP with cirRNA (SEQ ID NO: 1)
Please note: PDI exactly at 0.2 is not satisfied. Only values below 0.2 get satisfied.

MOLECULE	ANSWER LABEL
CCCCC/C=C\C/C=C\CCCCCCCCN(CCCCCCCC(=O)OC(CCCCCCCC)CCCCCCCC)CCOC(=O)NCCN1CCCCC1	satisfied
CCCCCCCCC(CCCCCC)C(=O)OCCCCCCCCN(CCCCCCCCOC(=O)C(CCCCCC)CCCCCCCC)CCCOC(=O)NCCN1CCN(C)CC1 (stereo not drawn)	not satisfied
CCCCCCCCCC(=O)OCCCCCCCN(CCCCCCCCOC(=O)C(CCCCCC)CCCCCCCC)CCCOC(=O)NCCN(C)C (stereo not drawn)	not satisfied
CCCCCCCCC(CCCCCC)C(=O)OCCCCCCCCN(CCCCCCCCOC(=O)C(CCCCCC)CCCCCCCC)CCCOC(=O)NCCN1CCCC1 (stereo not drawn)	satisfied
CCCCC/C=C\C/C=C\CCCCCCCCN(CCCCCCCC(=O)OC(CCCCCCCC)CCCCCCCC)CCOC(=O)NCCCN(C)C	satisfied
CCCCCCCCCCCOC(=O)CCCCCN(CCCCCCCC(=O)OC(CCCCCCCC)CCCCCCCC)CCOC(=O)NCCN1CCCCC1	satisfied
CCCCCCCCCC(=O)OCCCCCCCN(CCCCCCCCOC(=O)C(CCCCCC)CCCCCCCC)CCCOC(=O)NCc1ncc[nH]1 (stereo not drawn)	not satisfied
CCCCCCCOC(=O)CCCCCCCCCN(CCCCCCCCCC(=O)OCCCCCCC)CCOC(=O)NCCCN(CC)CC	satisfied
CCCCCCCCCCCOC(=O)CCCCCN(CCCCCCCCOC(=O)C(CCCCCC)CCCCCCCC)CCOC(=O)NCCCN(C)C (stereo not drawn)	not satisfied
CCCCCCCCCCC(CCCCCCCC)COC(=O)CCCCCN(CCCCCC(=O)OCC(CCCCCCCC)CCCCCCCCCC)CCOC(=O)NCCCN(CC)CC (stereo not drawn)	not satisfied
CCCCC/C=C\C/C=C\CCCCCCCCN(CCCCCCCC/C=C\C/C=C\CCCCC)CCOC(=O)NCCN(C)C	satisfied
CCCCCCCCCCC(CCCCCCCC)COC(=O)CCCCCN(CCCCCC(=O)OCC(CCCCCCCC)CCCCCCCCCC)CCOC(=O)NCCN1CCCC1 (stereo not drawn)	satisfied
CCCCCCCCCC(=O)OCCCCCCCCN(CCCCCCCCOC(=O)CCCCCCCCC)CCOC(=O)NCCN1CCN(C)CC1	satisfied
CCCCCCCCCCCOC(=O)CCCCCN(CCCCCCCCOC(=O)C(CCCCCC)CCCCCCCC)CCOC(=O)NCCN(C)C (stereo not drawn)	not satisfied
CCCCCCCCC(CCCCCCCC)OC(=O)CCCCCCCN(CCCCCCCCOC(=O)C(CCCCCC)CCCCCCCC)CCCOC(=O)NCCN1CCCCC1 (stereo not drawn)	satisfied
CCCCC/C=C\C/C=C\CCCCCCCCN(CCCCCCCC/C=C\C/C=C\CCCCC)CCOC(=O)NCc1ncc[nH]1	satisfied
CCCCC/C=C\CCOC(=O)CCCCCN(CCCCCC(=O)OCC(CCCCCCCC)CCCCCCCCCC)CCOC(=O)NCCN1CCCC1 (stereo not drawn)	not satisfied
CCCCCCCCC(CCCCCCCC)OC(=O)CCCCCCCN(CCCCCCCCOC(=O)C(CCCCCC)CCCCCCCC)CCCOC(=O)NCCN(C)C (stereo not drawn)	satisfied
CCCCCCCCCCC(CCCCCCCC)COC(=O)CCCCCN(CCCCCC(=O)OCC(CCCCCCCC)CCCCCCCCCC)CCCOC(=O)NCCN1CCCCCC1 (stereo not drawn)	not satisfied
CCCCC/C=C\C/C=C\CCCCCCCCN(CCCCCCCC/C=C\C/C=C\CCCCC)CCOC(=O)[C@@H](N)Cc1c[nH]cn1 [Lipid B, reference compound]	not satisfied
CCCCCCCCCCC(CCCCCCCC)COC(=O)CCCCCN(CCCCCC(=O)OCC(CCCCCCCC)CCCCCCCCCC)CCOC(=O)NCCCn1ccnc1 (stereo not drawn)	satisfied
CCCCC/C=C\C/C=C\CCCCCCCCN(CCCCCC(=O)OCC(CCCCCCCC)CCCCCCCCCC)CCOC(=O)NCCN1CCN(C)CC1 (stereo not drawn)	satisfied
CCCCCCCCCCCOC(=O)CCCCCN(CCCCCCCC(=O)OC(CCCCCCCC)CCCCCCCC)CCOC(=O)NCCCN(C)C	not satisfied
CCCCCCCCCC(=O)OCCCCCCCN(CCCCCCCCOC(=O)C(CCCCCC)CCCCCCCC)CCCOC(=O)NCCCn1ccnc1 (stereo not drawn)	not satisfied
CCCCCCCCCC(=O)OCCCCCCCN(CCCCCCCCOC(=O)C(CCCCCC)CCCCCCCC)CCOC(=O)NCCN(C)C (stereo not drawn)	satisfied
